- measured-on: UniProt Q96EB6
- assay-procedure: Mass spectrometry based assay to identify modulators of SIRT1 activity (deacetylation of p53-based acetylated peptide)
- Assay type: biochemical
- reported-conditions: SIRT1 activation; 10 nM SIRT1, 0.5 μM peptide substrate, 120 μM βNAD+, 25 minutes at 25° C.
measured-quantity: EC1.5 μM

compound="O=C(Nc1cccc2c(=O)[nH]c(-c3cccc(C(F)F)c3)nc12)c1cnccn1 [Compound 311]" value_measured="C (EC1.5>25 μM)"
compound="Cn1c(-c2cccc(OC(F)(F)F)c2)nc2c(NC(=O)c3cscn3)cccc2c1=O [Compound 203]" value_measured="C (EC1.5>25 μM)"
compound="Cn1c(-c2cccc(C#N)c2)nc2c(C(=O)Nc3ccccn3)cccc2c1=O [Compound 253]" value_measured="C (EC1.5>25 μM)"

* * *

- measured-on: SIRT1 (Homo sapiens)
- Sequence (Q96EB6 1-747): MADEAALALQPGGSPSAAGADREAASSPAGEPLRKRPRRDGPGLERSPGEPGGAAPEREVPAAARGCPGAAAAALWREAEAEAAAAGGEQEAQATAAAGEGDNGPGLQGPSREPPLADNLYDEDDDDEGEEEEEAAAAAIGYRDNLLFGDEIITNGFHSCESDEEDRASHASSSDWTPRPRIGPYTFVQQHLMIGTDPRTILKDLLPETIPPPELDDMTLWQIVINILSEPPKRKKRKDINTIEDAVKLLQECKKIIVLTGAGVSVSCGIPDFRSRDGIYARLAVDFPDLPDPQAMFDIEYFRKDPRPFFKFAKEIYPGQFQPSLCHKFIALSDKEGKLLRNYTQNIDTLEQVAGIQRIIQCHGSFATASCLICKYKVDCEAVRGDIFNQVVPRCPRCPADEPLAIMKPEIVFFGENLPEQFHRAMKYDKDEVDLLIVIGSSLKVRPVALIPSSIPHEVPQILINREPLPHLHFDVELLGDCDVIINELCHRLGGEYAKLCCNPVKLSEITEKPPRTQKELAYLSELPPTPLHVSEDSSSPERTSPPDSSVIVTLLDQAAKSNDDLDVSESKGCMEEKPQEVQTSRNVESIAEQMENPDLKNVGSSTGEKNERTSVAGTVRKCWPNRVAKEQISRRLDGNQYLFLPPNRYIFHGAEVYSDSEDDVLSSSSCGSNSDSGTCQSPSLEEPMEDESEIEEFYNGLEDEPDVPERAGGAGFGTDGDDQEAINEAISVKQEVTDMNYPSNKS
- assay-procedure: Mass spectrometry based assay to identify modulators of SIRT1 activity (deacetylation of p53-based acetylated peptide)
- Assay type: biochemical
- reported-conditions: 10 nM SIRT1, 0.5 μM peptide substrate, 120 μM βNAD+, 25 minutes at 25° C.
measured-quantity: % Fold Act. (percent maximum fold activation)

molecule="Cn1c(-c2cccc(OC(F)F)c2)nc2c(NC(=O)c3cnccn3)cccc2c1=O [Compound 315]" value_measured="A (Fold activation>200%)"
molecule="O=C(Nc1ccccn1)c1cccc2c(=O)cc(-c3cccc(C(F)(F)F)c3)[nH]c12 [Compound 401]" value_measured="A (Fold activation>200%)"
molecule="Cn1c(-c2cccc(C(F)(F)F)c2)nc2c(C(=O)Nc3ccncc3)cccc2c1=O [Compound 266]" value_measured="A (Fold activation>200%)"

* * *

- measured-on: SIRT1 (Homo sapiens)
- assay-procedure: Mass spectrometry based assay to identify modulators of SIRT1 activity (deacetylation of p53-based acetylated peptide)
- Assay type: biochemical
- reported-conditions: 10 nM SIRT1, 0.5 μM peptide substrate, 120 μM βNAD+, 25 minutes at 25° C.
measured-quantity: % Fold Act. (percent maximum fold activation)

Consider the following illustrative entries.
molecule=O=C(Nc1ccccn1)c1cccc2c(=O)[nH]c(-c3ccccc3OC(F)F)nc12 measured_on="SIRT1 (Homo sapiens)" value_measured="A (Fold activation>200%)"
molecule=Cn1c(-c2cccc(C(F)(F)F)c2)nc2c(C(=O)Nc3cccc(CN4CCNCC4)n3)cccc2c1=O measured_on="SIRT1 (Homo sapiens)" value_measured="A (Fold activation>200%)"
molecule=COc1cccc(C(=O)Nc2cccc3c(=O)cc(-c4cccc(C(F)(F)F)c4)[nH]c23)n1 measured_on="SIRT1 (Homo sapiens)" value_measured="A (Fold activation>200%)"
molecule=Cn1c(-c2ccc(N3CCOCC3)cc2)nc2c(C(=O)Nc3ccccn3)cccc2c1=O measured_on="SIRT1 (Homo sapiens)" value_measured="A (Fold activation>200%)"
molecule=Cn1c(-c2cccc(C(F)(F)F)c2)nc2c(C(=O)Nc3cccnc3)cccc2c1=O measured_on="SIRT1 (Homo sapiens)" value_measured="A (Fold activation>200%)"
molecule=O=C(Nc1nccs1)c1cccc2c(=O)cc(-c3cccc(Cl)c3)[nH]c12 measured_on="SIRT1 (Homo sapiens)" value_measured="A (Fold activation>200%)"
molecule=Cn1c(-c2cccc(OC(F)(F)F)c2)nc2c(NC(=O)c3cscn3)cccc2c1=O measured_on="SIRT1 (Homo sapiens)" value_measured="B (Fold Activation<200%)"
molecule=Cn1c(-c2cccc(C(F)(F)F)c2)nc2c(NC(=O)c3cncs3)cccc2c1=O measured_on="SIRT1 (Homo sapiens)" value_measured="B (Fold Activation<200%)"
molecule=Cn1c(-c2cccc(C(F)(F)F)c2)nc2c(C(=O)Nc3cccc(N4CCCC4)n3)cccc2c1=O measured_on="SIRT1 (Homo sapiens)" value_measured="B (Fold Activation<200%)"
molecule=Cn1c(-c2ccc(C(F)(F)F)cc2)nc2c(NC(=O)c3cnccn3)cccc2c1=O measured_on="SIRT1 (Homo sapiens)" value_measured="B (Fold Activation<200%)"

Lab note: `Cn1c(-c2cccc(C(F)(F)F)c2)nc2c(NC(=O)c3cscn3)cccc2c1=O` gave % Fold Act. (percent maximum fold activation) of B (Fold Activation<200%)

# % Fold Act. (percent maximum fold activation) of `O=C(Nc1cccc2c(=O)[nH]c(-c3cccc(OC(F)F)c3)nc12)c1cnccn1` = B (Fold Activation<200%)

Looking up `Cn1ccc(C(=O)Nc2cccc3c(=O)n(C)c(-c4cccc(C(F)(F)F)c4)nc23)n1` , I found its % Fold Act. (percent maximum fold activation) recorded as B (Fold Activation<200%)

Please fill in: % Fold Act. (percent maximum fold activation) reported for `Cn1c(-c2ccc(C#N)cc2)nc2c(C(=O)Nc3ccccn3)cccc2c1=O` = B (Fold Activation<200%)

% Fold Act. (percent maximum fold activation) reading for `Cn1c(-c2ccncc2)nc2c(NC(=O)c3cnccn3)cccc2c1=O` : B (Fold Activation<200%)

Notebook: `O=C(Nc1cccc2c(=O)n(CCN3CCCC3)c(-c3cccc(C(F)(F)F)c3)nc12)c1cnccn1` , % Fold Act. (percent maximum fold activation) read as A (Fold activation>200%)

Noted for `Cn1c(-c2cccc(S(C)(=O)=O)c2)nc2c(C(=O)Nc3ccccn3)cccc2c1=O` : its % Fold Act. (percent maximum fold activation) reads A (Fold activation>200%)

All figures here come from patent US9326986B2.
